Reported half-life at 5 µM values follow for various compounds
Assay: Stability in mouse hepatocytes
Type: in vitro ADME
Conditions: Diastereoisomer A (upfield shift in 31P NMR), 5 μM, 1 million cells/ml, 37° C., mouse hepatocytes, read-out: t1/2, Mouse Hepatocytes, Diastereoisomer A (converted)
Write down the numeric answer in min and omit the unit.

{"COMPOUND": "COC(=O)CCNC(=O)[C@@H]1OP(=O)(N[C@H]2CN[C@@H](C(=O)OC)C2)OCC1(C)C (stereo partly shown)", "ASSAY_RESULT": 54.6}
{"COMPOUND": "COC(=O)CCNC(=O)[C@@H]1OP(=O)(N[C@H](C(=O)OC)C(C)C)OCC1(C)C (stereo partly shown)", "ASSAY_RESULT": 25.8}

Prompt line: So what's the measured half-life at 5 µM for this one? COC(=O)CCNC(=O)[C@@H]1OP(=O)(NCCN2CCCC2)OCC1(C)C (stereo partly shown)
Response line: 203

###

Experiment: Stability in human plasma
Format: in vitro ADME
Conditions: human, plasma, Diastereoisomer B, 37° C., read-out: t1/2, Human Plasma, Diastereoisomer B (converted)
Reported half-life at 3 µM values follow for various molecules

Completed entries (count: 5):
{"MOLECULE": "C[C@H](NP1(=O)OCC(C)(C)[C@H](C(=O)NCCC(=O)OCc2cnccn2)O1)C(=O)OCCc1ccccc1 (stereo partly shown) [compound 39]", "half-life at 3 µM": "> 60 min"}
{"MOLECULE": "COC(=O)CCNC(=O)[C@@H]1OP(=O)(OCCc2cccnc2)OCC1(C)C (stereo partly shown) [compound 61]", "half-life at 3 µM": "> 60 min"}
{"MOLECULE": "COC(=O)CCNC(=O)[C@@H]1OP(=O)(OC(C)OC(=O)c2ccccc2)OCC1(C)C (stereo partly shown) [compound 98]", "half-life at 3 µM": "18 min"}
{"MOLECULE": "COC(=O)CCNC(=O)[C@@H]1OP(=O)(OCOC(=O)C2(C)CN(C(=O)OC(C)(C)C)C2)OCC1(C)C (stereo partly shown) [Compound No. 85]", "half-life at 3 µM": "< 9.6 min"}
{"MOLECULE": "COC(=O)CCNC(=O)[C@@H]1OP(=O)(N[C@H](C)C(=O)OCCc2ccccc2)OCC1(C)C (stereo partly shown) [compound 26]", "half-life at 3 µM": "> 60 min"}

Prompt line: So what's the measured half-life at 3 µM for this one? C[C@H](NP1(=O)OCC(C)(C)[C@H](C(=O)NCCC(=O)O[C@@H]2CCOC2)O1)C(=O)OCCc1ccccc1 (stereo partly shown) [1-55]
Response line: > 60 min

Prompt line: So what's the measured half-life at 3 µM for this one? COC(=O)CCNC(=O)[C@@H]1OP(=O)(OCOC(=O)C(C)C)OCC1(C)C (stereo partly shown) [Compound No. 103]
Response line: < 9.6 min

###

Experiment: Stability in human plasma
Type: in vitro ADME
Conditions: human, plasma, Diastereoisomer B, 37° C., read-out: t1/2, Human Plasma, Diastereoisomer B (converted)
MEASUREMENT_NAME: half-life at 3 µM

{"COMPOUND": "COC(=O)CCNC(=O)[C@@H]1OP(=O)(N[C@@H](Cc2cccnc2)C(=O)OCc2ccccc2)OCC1(C)C (some centres unmarked) [compound 30]", "ASSAY_RESULT": "> 60 min"}
{"COMPOUND": "COC(=O)CCNC(=O)[C@@H]1OP(=O)(OCOC(=O)[C@H](CC(C)C)NC(C)=O)OCC1(C)C (some centres unmarked) [Compound No. 73]", "ASSAY_RESULT": "< 9.6 min"}
{"COMPOUND": "COC(=O)CCNC(=O)[C@@H]1OP(=O)(N[C@@H](C)C(=O)OC[C@H]2CCC(=O)N2)OCC1(C)C (some centres unmarked) [compound 23]", "ASSAY_RESULT": "57.6 min"}
{"COMPOUND": "COC(=O)[C@H](C)NP1(=O)OCC(C)(C)[C@H](C(=O)NCCC(=O)OCc2ccncc2)O1 (some centres unmarked) [compound 20]", "ASSAY_RESULT": "> 60 min"}
{"COMPOUND": "COC(=O)CCNC(=O)[C@@H]1OP(=O)(OCOC(=O)C(C)(C)C)OCC1(C)C (some centres unmarked) [Compound No. 65]", "ASSAY_RESULT": "< 9.6 min"}

Prompt line: So what's the measured half-life at 3 µM for this one? COC(=O)CCNC(=O)[C@@H]1OP(=O)(N[C@@H](Cc2cccnc2)C(=O)OCCc2ccccc2)OCC1(C)C (some centres unmarked) [compound 36]
Response line: > 60 min

Prompt line: So what's the measured half-life at 3 µM for this one? C[C@H](NP1(=O)OCC(C)(C)[C@H](C(=O)NCCC(=O)OCC2CC2)O1)C(=O)OCCc1ccccc1 (some centres unmarked) [compound 37]
Response line: > 60 min

Prompt line: So what's the measured half-life at 3 µM for this one? CC(C)(C)C(=O)OCOP1(=O)OCC(C)(C)[C@H](C(=O)NCCC(=O)OCc2ccncc2)O1 (stereo in doubt) [Compound No. 71]
Response line: < 9.6 min
